Below, each entry is listed alongside its reported self-cleavage kobs at 10000 uM GlcN6P.
B1: glmS ribozyme (parent)
chain: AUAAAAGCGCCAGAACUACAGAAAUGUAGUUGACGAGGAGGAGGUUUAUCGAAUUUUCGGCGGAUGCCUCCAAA

# Variants of: B1
# assay.comment: self-cleavage kobs at 10000 uM GlcN6P; higher = faster cleavage; RNA array
# test.context: with glucosamine-6-phosphate
This sample holds only a part of the variants without activity.
observable: self-cleavage kobs at 10000 uM GlcN6P

                     variant_spec   test_result
 0                      U31A G62C   < 1e-05 s⁻¹
 1    A6U G7A G44U A52U U55C A64U   < 1e-05 s⁻¹
 2                       G7C C68U   < 1e-05 s⁻¹
 3                      G44A C70A   < 1e-05 s⁻¹
 4             C8G C16G G41A U47A   < 1e-05 s⁻¹
 5            C10G U30C A33C U55A   < 1e-05 s⁻¹
 6            G40U G51U G62A C68U   < 1e-05 s⁻¹
 7                 C10A C50U G59A   < 1e-05 s⁻¹
 8                      A33C G35C   < 1e-05 s⁻¹
 9                      A33G U47A   < 1e-05 s⁻¹
10  U30A G32A G41C G51C C61A C71U   < 1e-05 s⁻¹
11                       G7C C71A   < 1e-05 s⁻¹
12       C10G A39C U45A U54G G62C   < 1e-05 s⁻¹
13            G38C G44C A53U G62C   < 1e-05 s⁻¹
14                 C10U A15U U45A   < 1e-05 s⁻¹
15             C8U A12U A42C C70U   < 1e-05 s⁻¹
16                 A14U A36C A64U   < 1e-05 s⁻¹
17                 A36U A39C U65C   < 1e-05 s⁻¹
18         G7U C8A A33U G43A U55A   < 1e-05 s⁻¹
19                       G7C A48U   < 1e-05 s⁻¹
20                       A6G G51A   < 1e-05 s⁻¹
21                 A14U U54A G59C   < 1e-05 s⁻¹
22                 C34U G40U C67G   < 1e-05 s⁻¹
23                 C34G G41C G66U   < 1e-05 s⁻¹
24                  C8U A36U U45A   < 1e-05 s⁻¹
25                 G38A C58U U69C   < 1e-05 s⁻¹
26                 G43C A52C U54G   < 1e-05 s⁻¹
27       C16U A42U U45C G59A C68U   < 1e-05 s⁻¹
28                      G60C C71G   < 1e-05 s⁻¹
29                       C8G C67A   < 1e-05 s⁻¹
30                 A36G A64U U65G   < 1e-05 s⁻¹
31                 A14U G38U G63U   < 1e-05 s⁻¹
32                      U57G G62A   < 1e-05 s⁻¹
33                  G7A U57A C58A   < 1e-05 s⁻¹
34            U30A A33G C61G C70A   < 1e-05 s⁻¹
35                      A15C G44A  2.02e-05 s⁻¹
36                 U31A A33G C67A   < 1e-05 s⁻¹
37                      U30C C68U  0.000111 s⁻¹
38                      A39G U56C   0.00611 s⁻¹
39                      A48G C68U  4.18e-05 s⁻¹
40                 C11A G44U C67U  4.33e-05 s⁻¹
41                      A33U A53G  2.98e-05 s⁻¹
42                  C8G C16U C68A   < 1e-05 s⁻¹
43                      G13U U30A  5.22e-05 s⁻¹
44                      C16A C58U  3.14e-05 s⁻¹
45                      C61U G63A   < 1e-05 s⁻¹
46                      G44U U65A  5.28e-05 s⁻¹
47                      U46C U49A   < 1e-05 s⁻¹
48                      U56A C68U   0.00472 s⁻¹
49                      U46A C67U   0.00257 s⁻¹
50  C10G G29A G37A G38U G41C C71U   < 1e-05 s⁻¹
51                 G29A G37C U69C   < 1e-05 s⁻¹
52            C16A U30C A53C C70G   < 1e-05 s⁻¹
53                      G13U C34G   < 1e-05 s⁻¹
54            A48U A52G U55A A64G  4.66e-05 s⁻¹
55                      U31G G32A   0.00185 s⁻¹
56                 C11G C34A A64C   < 1e-05 s⁻¹
57                 U55G U65A C67A  9.95e-05 s⁻¹
58                      U46A U55G   0.00169 s⁻¹
59                      G35C G44C   < 1e-05 s⁻¹
60                      G32U G63U   < 1e-05 s⁻¹
61                 A33G U55C G59A   < 1e-05 s⁻¹
62                 G38U C50G C71A   9.8e-05 s⁻¹
63                      C10U C70U  2.38e-05 s⁻¹
64            C16U U30A G44C G63C   < 1e-05 s⁻¹
65            C16U G40U U56A C71G   0.00169 s⁻¹
66                      G13U G43C   < 1e-05 s⁻¹
67                      C58A G60U   < 1e-05 s⁻¹
